Below: a set of entries, each annotated with reported IC50.
System: Plasmodium falciparum
Measurement notes: Antimalarial activity against Plasmodium falciparum DD2 expressing Saccharomyces cerevisiae DHOD by [3H]hypoxanthine uptake
Assay type: functional, organism-based

- Compound: "O=C1C(O)=C([C@H]2CC[C@H](c3ccc(Cl)cc3)CC2)C(=O)c2ccccc21"
  IC50: "> 10 µM"
- Compound: "c1ccc([I+]c2ccccc2)cc1 [DIPHENYLIODONIUM CHLORIDE]"
  IC50: "10.6 µM"
- Compound: "O=c1cc(-c2ccccc2)oc2ccccc12"
  IC50: "> 10 µM"
- Compound: "C[C@@H]1CC[C@H]2[C@@H](C)C(=O)O[C@@H]3O[C@@]4(C)CC[C@@H]1[C@]32OO4"
  IC50: "0.006 µM"
- Compound: "C=C(C)[C@H]1Cc2c(ccc3c2O[C@@H]2COc4cc(OC)c(OC)cc4[C@@H]2C3=O)O1"
  IC50: "> 10 µM"
- Compound: "CCCCCC[C@H]1C(=O)O[C@H](C)[C@H](NC(=O)c2cccc(NC=O)c2O)C(=O)O[C@@H](C)[C@@H]1OC(=O)CC(C)C [ANTIMYCIN A]"
  IC50: "> 10 µM"
- Compound: "CCCCCCCCCCCCc1cc(=O)c2ccccc2n1O"
  IC50: "> 10 µM"
